# test_summary: Absorption and luminescence (excitation, molar absorption, lifetime, quantal throughput)
# Type: physicochemical
# recorded_conditions: band at ˜36500 cm^−1
Recorded molar absorption coefficient by entry
Report only the number, with the unit M⁻¹ cm⁻¹ understood.

Reported molar absorption coefficient, compound `O=C([O-])CN1CCN(Cc2cccc(C(=O)[O-])n2)CCN(Cc2cccc(C(=O)[O-])n2)CC1.[Eu+3]` : ____
9050

Turning now to a further record.
Reported molar absorption coefficient, compound `O=C([O-])CN1CCN(Cc2cccc(C(=O)[O-])n2)CCN(Cc2cccc(C(=O)[O-])n2)CC1.[Tb+3]` : ____
9100

Data provenance: patent US20100247448A1
